# Protocol Summary: Intrinsic clearance
# Assay type: in vitro ADME, human
# Protocol Conditions: human, liver S9 fraction, pH 7.4
microsomal CLint at 1 μM class ranges: c1 (below 20 µL/min/mg), c2 (20 µL/min/mg to below 70 µL/min/mg), c3 (70 µL/min/mg or more)

As a guide, the following entries are already answered.
CCN(Cc1ccccc1OC)C(=O)c1cc(C)c(C)s1 = c2
CCCN(Cc1ccccc1OC)C(=O)c1cccc(Br)c1 = c2
CCCN(Cc1ccccc1OC)C(=O)c1cccc(C(F)(F)F)c1 = c3
CCCN(Cc1ccccc1OC)C(=O)c1cc2c(s1)CCCC2 = c3
CCCCN(Cc1ccccc1OC)C(=O)c1cc(C)c(C)s1 = c3
CCCN(Cc1ccccc1OC)C(=O)c1cc(C)c(C)s1 = c1
CCCN(Cc1ccccc1OC)C(=O)c1cccc(Br)c1F = c2
CCCN(Cc1ccccc1OC)C(=O)c1ccc(Br)c(Br)c1 = c3
CCCN(Cc1ccccc1OC)C(=O)c1ccc(F)c(Br)c1 = c1

Would you kindly look at the next entry?
# input Which bin, given its microsomal CLint at 1 μM, does `CCCN(Cc1ccccc1OC)C(=O)c1cc(F)cc(Br)c1` occupy?
# output c2

* * *

# Tested System: UniProt:P11607
# Protocol Summary: NADH-coupled enzyme-linked Ca2+-ATPase activity assay in cardiac SR vesicles
# Type: biochemical, porcine
# Protocol Conditions: Ca2+-ATPase [Ca2+]MAX EC50 (μM), [Ca2+]MAX (pCa 5.4), cardiac SR
EC50 listing for selected compounds.
Return type: number; implicit unit µM.

Before answering, review these 3 worked examples.
CCCCN(Cc1ccccc1OC)C(=O)c1cc(C)c(C)s1 = 4
CCCN(Cc1ccccc1OC)C(=O)c1cc(F)cc(Br)c1 = 2.2
CCCN(Cc1ccccc1OC)C(=O)c1cccc(Br)c1F = 3.4

# input Recall the reported EC50 of `CCCN(Cc1ccccc1OC)C(=O)c1cccc(Br)c1` when tested on UniProt:P11607.
# output 1.5

# input Give reported EC50 for `CCCN(Cc1ccccc1OC)C(=O)c1ccc(F)c(Br)c1` (UniProt:P11607)
# output 4

# input # assay system UniProt:P11607: give EC50 of `CCCN(Cc1ccccc1OC)C(=O)c1cc2c(s1)CCCC2`
# output 3.3

# input Answer with EC50 of `CCCN(Cc1ccccc1OC)C(=O)c1ccc(Br)c(Br)c1` measured for UniProt:P11607.
# output 0.9

# input // fetch EC50 for `CCN(Cc1ccccc1OC)C(=O)c1cc(C)c(C)s1` ; system: UniProt:P11607
# output 6.3

# input // fetch EC50; item: `CCCN(Cc1ccccc1OC)C(=O)c1cc(C)c(C)s1` ; system: UniProt:P11607
# output 5.3

# input Give measured EC50 for `CCCN(Cc1ccccc1OC)C(=O)c1cccc(C(F)(F)F)c1` (UniProt:P11607).
# output 5.1

* * *

# Tested System: SERCA2a (Sus scrofa, UniProt P11607)
# Sequence (P11607 1-997 isoform P11607-2): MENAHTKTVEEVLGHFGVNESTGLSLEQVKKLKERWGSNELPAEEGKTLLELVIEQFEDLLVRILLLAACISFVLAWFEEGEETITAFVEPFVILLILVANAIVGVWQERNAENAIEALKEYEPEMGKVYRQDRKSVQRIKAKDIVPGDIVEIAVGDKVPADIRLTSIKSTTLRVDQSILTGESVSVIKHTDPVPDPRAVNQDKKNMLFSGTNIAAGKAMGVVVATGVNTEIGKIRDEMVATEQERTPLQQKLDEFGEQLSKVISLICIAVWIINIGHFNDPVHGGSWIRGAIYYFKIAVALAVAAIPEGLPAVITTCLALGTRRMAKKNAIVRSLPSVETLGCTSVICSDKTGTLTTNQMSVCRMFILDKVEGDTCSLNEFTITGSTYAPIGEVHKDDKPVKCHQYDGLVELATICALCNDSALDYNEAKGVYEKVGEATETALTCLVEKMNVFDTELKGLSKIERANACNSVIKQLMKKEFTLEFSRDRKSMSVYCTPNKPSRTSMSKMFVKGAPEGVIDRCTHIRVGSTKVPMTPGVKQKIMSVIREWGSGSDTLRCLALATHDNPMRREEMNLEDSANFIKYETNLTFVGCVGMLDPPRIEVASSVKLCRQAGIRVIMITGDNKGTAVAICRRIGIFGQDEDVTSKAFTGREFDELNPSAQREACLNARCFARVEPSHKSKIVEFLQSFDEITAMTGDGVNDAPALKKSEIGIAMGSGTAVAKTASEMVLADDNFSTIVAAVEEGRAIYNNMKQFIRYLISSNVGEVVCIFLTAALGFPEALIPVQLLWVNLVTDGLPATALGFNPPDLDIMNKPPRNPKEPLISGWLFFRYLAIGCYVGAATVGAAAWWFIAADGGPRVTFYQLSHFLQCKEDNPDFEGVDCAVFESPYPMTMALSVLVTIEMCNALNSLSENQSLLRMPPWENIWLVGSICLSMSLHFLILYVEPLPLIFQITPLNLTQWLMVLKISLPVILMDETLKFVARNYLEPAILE
# Protocol Summary: NADH-coupled enzyme-linked Ca2+-ATPase activity assay in cardiac SR vesicles
# Type: biochemical, porcine
# Protocol Conditions: Ca2+-ATPase [Ca2+]MID EC50 (μM), [Ca2+]MID (pCa 6.2), cardiac SR
API: label(entry) gives Met if the entry's EC50 is strictly smaller than 3 µM; on equality or larger values it gives Not met.

CCCN(Cc1ccccc1OC)C(=O)c1cccc(C(F)(F)F)c1 [Compound 21] = Not met
CCCN(Cc1ccccc1OC)C(=O)c1cccc(Br)c1 [Compound 22] = Met
CCCN(Cc1ccccc1OC)C(=O)c1cc2c(s1)CCCC2 [Compound 8] = Not met

# input Does CCCN(Cc1ccccc1OC)C(=O)c1ccc(Br)c(Br)c1 [Compound 23] have EC50 strictly under 3 µM?
# output Not met

# input Could you please tell me whether EC50 recorded for CCN(Cc1ccccc1OC)C(=O)c1cc(C)c(C)s1 [Compound 32] is less than 3 µM?
# output Not met

# input I'd appreciate it if you could check whether CCCN(Cc1ccccc1OC)C(=O)c1cc(F)cc(Br)c1 [Compound 26] has EC50 smaller than 3 µM.
# output Met

# input Hello, is EC50 of the following molecule strictly smaller than 3 µM? CCCN(Cc1ccccc1OC)C(=O)c1cccc(Br)c1F [Compound 24]
# output Not met

# input For CCCN(Cc1ccccc1OC)C(=O)c1cc(C)c(C)s1 [Compound 1] , is the recorded EC50 below the cut-off of 3 µM?
# output Not met

# input Does CCCN(Cc1ccccc1OC)C(=O)c1ccc(F)c(Br)c1 [Compound 25] have EC50 strictly under 3 µM?
# output Not met

* * *

# Tested System: SERCA2a (Sus scrofa)
# Protocol Summary: oxalate-based Ca2+-uptake
# Assay type: biochemical, porcine
# Protocol Conditions: Ca2+-Uptake [Ca2+]MID EC50 (μM), [Ca2+]MID (pCa 6.2), cardiac SR
Label rule met when EC50 < 0.9 µM; otherwise rule not met.

Here are 2 compounds together with their reported answers.
CCCN(Cc1ccccc1OC)C(=O)c1cc(C)c(C)s1 = rule met
CCCN(Cc1ccccc1OC)C(=O)c1cccc(C(F)(F)F)c1 = rule not met

Field: next compound
# input Does the reported EC50 of the following compound sit strictly below 0.9 µM? `CCCCN(Cc1ccccc1OC)C(=O)c1cc(C)c(C)s1`
# output rule met

* * *

# Tested System: SERCA2a (Sus scrofa)
# Protocol Summary: oxalate-based Ca2+-uptake
# Type: biochemical, porcine
# Protocol Conditions: Ca2+-Uptake [Ca2+]MID EC50 (μM), [Ca2+]MID (pCa 6.2), cardiac SR
Measured Parameter: EC50 (µM)
Just the number in µM, nothing appended.

// worked examples, EC50 included
CCCN(Cc1ccccc1OC)C(=O)c1cccc(Br)c1 = 12.4
CCCN(Cc1ccccc1OC)C(=O)c1ccc(Br)c(Br)c1 = 9.2

Next:
# input Quick one: give measured EC50 for `CCCN(Cc1ccccc1OC)C(=O)c1cccc(Br)c1F`
# output 0.83

* * *

# Tested System: SERCA2a (Sus scrofa)
# Protocol Summary: oxalate-based Ca2+-uptake
# Format: biochemical, porcine
# Protocol Conditions: [Ca2+]MAX (pCa 5.4), cardiac SR
Assign labels as follows, please: condition met for Ca2+-Uptake [Ca2+]MAX % effect below 10%; condition not met for Ca2+-Uptake [Ca2+]MAX % effect equal to or exceeding 10%.

Solved entries:
CCCN(Cc1ccccc1OC)C(=O)c1cccc(Br)c1F = condition not met
CCCCN(Cc1ccccc1OC)C(=O)c1cc(C)c(C)s1 = condition not met
CCCN(Cc1ccccc1OC)C(=O)c1cccc(Br)c1 = condition not met

# input # strict comparison: is reported Ca2+-Uptake [Ca2+]MAX % effect < 10%? input = `CCN(Cc1ccccc1OC)C(=O)c1cc(C)c(C)s1`
# output condition not met

# input is_below(Ca2+-Uptake [Ca2+]MAX % effect, 10%) for `CCCN(Cc1ccccc1OC)C(=O)c1cc2c(s1)CCCC2` ?
# output condition met

# input Lab note: Ca2+-Uptake [Ca2+]MAX % effect threshold 10%. Does this compound come in strictly under it? `CCCN(Cc1ccccc1OC)C(=O)c1cccc(C(F)(F)F)c1`
# output condition not met

* * *

# reported Thalf; entries follow
# Protocol Summary: Intrinsic clearance
# Type: in vitro ADME, human
# Protocol Conditions: human liver S9 0.5 mg/mL, 1 μM compound, NADPH, 37 °C
Number in min, nothing else.

Field: example entries. Status: answers known.
CCCN(Cc1ccccc1OC)C(=O)c1cc(C)c(C)s1 = 97.6
CCN(Cc1ccccc1OC)C(=O)c1cc(C)c(C)s1 = 34.7
CCCN(Cc1ccccc1OC)C(=O)c1cccc(C(F)(F)F)c1 = 10.3
CCCN(Cc1ccccc1OC)C(=O)c1cc2c(s1)CCCC2 = 20.1

In the following, a different compound is considered.
# input Please indicate Thalf recorded for `CCCN(Cc1ccccc1OC)C(=O)c1ccc(Br)c(Br)c1`
# output 15.3

* * *

Below: a set of entries, each annotated with reported Ca2+-ATPase [Ca2+]MID % effect.
# Tested System: SERCA2a (Sus scrofa, UniProt P11607)
# Protocol Summary: NADH-coupled enzyme-linked Ca2+-ATPase activity assay in cardiac SR vesicles
# Assay type: biochemical, porcine
# Protocol Conditions: [Ca2+]MID (pCa 6.2), cardiac SR
Form entry: value (%) — number only.

// known answers, use as guide
CCN(Cc1ccccc1OC)C(=O)c1cc(C)c(C)s1 [Compound 32] = 24
CCCCN(Cc1ccccc1OC)C(=O)c1cc(C)c(C)s1 [Compound 33] = 23
CCCN(Cc1ccccc1OC)C(=O)c1cccc(Br)c1F [Compound 24] = 25

# input Give me measured Ca2+-ATPase [Ca2+]MID % effect, please, for this compound: CCCN(Cc1ccccc1OC)C(=O)c1cccc(C(F)(F)F)c1 [Compound 21]
# output 25
